Test system: NCI-H23 lung
Measurement Description: NCI tumour cell line growth inhibition, 48 h
Experimental Endpoint: TGI

Worked examples, 3 compounds total:
{"Compound": "Cn1cc2c(n1)c(N/N=C/c1ccccc1)nn1nnnc21", "Measurement Target": "NCI-H23 lung", "Measured Result": "> 100 µM"}
{"Compound": "NC(=O)c1n[nH]n(-c2ccccc2)c1=O", "Measurement Target": "NCI-H23 lung", "Measured Result": "> 100 µM"}
{"Compound": "NC(=O)c1[nH]nc(C2OC(CO)C(O)C2O)c1O (centres undefined)", "Measurement Target": "NCI-H23 lung", "Measured Result": "386 µM"}

For every record below, what is its TGI?
1. CC1=C(C2=C(C)C(=O)C(=O)c3cc(C)ccc32)c2ccc(C)cc2C(=O)C1=O
2. Cc1nc2c(nc1C)-c1c(c3c(n1Cc1ccccc1)C(=O)CCC3)C(=O)C2=O
3. CN(C)CCNCc1c2ccccc2c(CNCCN(C)C)c2ccccc12

RESULT:
1. 0.442 µM
2. > 100 µM
3. > 100 µM
